Values were extracted from patent US4363805A.

test system: mongrel cats; test: Inotropic and heart-circulatory effectiveness on narcotised cats, intravenous; format: in vivo, cat; settings: 2.50 mg/kg i.v.; 6 animals
assay_readout: dp/dt (inotropism) after (mm.Hg/sec)
All answers are understood in mm.Hg/sec, so give the number only.

Look over these answered cases.
| compound | measurement_units | reported_measurement |
| --- | --- | --- |
| O=[N+]([O-])O[C@H]1CO[C@H]2[C@@H]1OC[C@@H]2NCC(O)COc1cccc(C(F)(F)F)c1 (some centres unmarked) [Example 52] | mm.Hg/sec | 2733 |
| O=[N+]([O-])O[C@H]1CO[C@H]2[C@@H]1OC[C@@H]2NCCCCCc1ccccc1 [Example 30] | mm.Hg/sec | 5840 |

Please examine the following record next.
May I ask what dp/dt (inotropism) after has been recorded for N#Cc1ccccc1OCC(O)CN[C@H]1CO[C@H]2[C@@H]1OC[C@@H]2O[N+](=O)[O-] (some centres unmarked) [Example 50] ?
2733
